- assay_system: UniProtKB Q6UWV6
- Sequence (Q6UWV6 22-458): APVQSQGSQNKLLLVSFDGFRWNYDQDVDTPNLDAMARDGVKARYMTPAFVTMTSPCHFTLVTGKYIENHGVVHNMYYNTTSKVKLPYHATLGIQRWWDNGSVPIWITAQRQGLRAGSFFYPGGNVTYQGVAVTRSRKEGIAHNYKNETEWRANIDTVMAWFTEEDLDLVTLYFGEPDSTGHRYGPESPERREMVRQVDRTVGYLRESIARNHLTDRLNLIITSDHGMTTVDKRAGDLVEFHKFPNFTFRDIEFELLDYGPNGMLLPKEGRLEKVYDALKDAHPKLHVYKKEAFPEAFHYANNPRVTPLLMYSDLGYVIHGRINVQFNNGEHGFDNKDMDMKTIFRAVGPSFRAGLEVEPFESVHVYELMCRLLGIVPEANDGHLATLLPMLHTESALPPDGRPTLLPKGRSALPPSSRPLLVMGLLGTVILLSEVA
- test_method_notes: NPP-7 inhibition assay (pNPPC substrate)
- Assay type: biochemical
- reported_conditions: 10 μM compound; 8.3 nM enzyme; 10 μM pNPPC; read-out: NPP7 Activity, % control (10 μM)
observation_type: remaining activity at 10 µM (%)
Form entry: value (%) — number only.

> print(dat)
                                   molecule  quantitative.result
1  CCCCCCCCCCC/C=C/c1ccc2cc(CP(=O)(O)O)ccc2c1 [Compound 30b]                 96.5
2    CCCCCCCCCCCCC/C=C/c1ccc(CP(=O)(O)O)cc1                 97.7
3  CCCCCCCCCCCCc1ccc2cc(CP(=O)(O)O)ccc2c1 [Compound 34a]                 98.8
4  CCCCCCCCCCCCCCCc1ccc(C(Cl)P(=O)(O)O)cc1 (stereo not drawn)                 99.9
5       CCCCCCCCCCCCCCCc1ccc(CP(=O)(O)O)cc1                 96.7

Form: molecule = CCCCCCCCCCCCCc1ccc2cc(CP(=O)(O)O)ccc2c1 [Compound 34b] ; remaining activity at 10 µM = 94.7

// remaining activity at 10 µM lookup, molecule = CCCCCCCCCCCCCCCc1ccc(COP(O)(O)=S)cc1 , result: 92.9

Values compiled from patent US8673882B2.
